Would you kindly list λmax, abs for each of these molecules?
- procedure_text: Optical characteristics, Table 3
- Assay type: physicochemical
- condition_info: pH 9; 0.1 M phosphate buffer containing 1% DMSO
Numbers only, in nm.

INSERT INTO results (molecule, result_number) VALUES
  ('Cc1ccccc1C1=C2C=CC(=O)C=C2[Si](C)(C)c2cc(O)ccc21 [2-Me TokyoMagenta]', 582);

Give measured λmax, abs for every item shown.
1. C[Si]1(C)C2=CC(=O)C=CC2=C(c2ccccc2C(=O)O)c2ccc(O)cc21 [2-COOH TM]
2. Cc1ccccc1C1=C2C=CC(=O)C(Cl)=C2[Si](C)(C)c2c1ccc(O)c2Cl [2-Me DCTM]
3. Cc1ccccc1C1=C2C=CC(=O)C(F)=C2[Si](C)(C)c2c1ccc(O)c2F [2-Me DFTM]
4. C[Si]1(C)C2=C(F)C(=O)C=CC2=C(c2ccccc2C(=O)O)c2ccc(O)c(F)c21 [2-COOH DFTM]
5. C[Si]1(C)C2=C(Cl)C(=O)C=CC2=C(c2ccccc2C(=O)O)c2ccc(O)c(Cl)c21 [2-COOH DCTM]

1: 582; 2: 595; 3: 583; 4: 581; 5: 591
